Reference source: paper PMC5011932

experiment: Plasma pharmacokinetics by HPLC-ECD after IV dose in rhesus monkeys; conditions: mean; healthy rhesus; IV AL/Lys 11.8 or AS/Na 8 mg/kg
MEASUREMENT_NAME: Cmax (µM)
Please give a number only; it is taken to be in µM.

-- ask Recorded Cmax of CC1CCC2C(C)C(OCc3ccc(C(=O)O)cc3)OC3OC4(C)CCC1C32OO4.CC1CCC2C(C)C(OCc3ccc(C(=O)O)cc3)OC3OC4(C)CCC1C32OO4.O (stereo not shown) , please.
-- reply 61.6

###

test: in vivo; conditions: rhesus monkey, Plasma concentration, mean
MEASUREMENT_NAME: concentration at 6 h (nM)
Just the number please, in nM, no unit attached.

-- ask Dear colleague, I am looking for the recorded concentration at 6 h of the following compound: `C[C@H]1[C@H](OC(=O)CCC(=O)O)O[C@@H]2O[C@@]3(C)CC[C@H]4[C@H](C)CC[C@@H]1[C@@]24OO3`
-- reply 0
